Tested on: PC-3 prostate
Assay: NCI-60 one-dose screen, 48 h
Settings: 10 µM unless noted
The panel holds about 83,000 compounds, 20% with a hit somewhere; the sample as a whole holds those more often. Active and inactive are the calls of the source. Rule for the calls: active = growth percent below 10; inactive = the rest.
Outcome codes: 1 for active, -1 for inactive

> print(dat)
                                   compound  assigned.category
1  CCC(C)[C@H](NC(=O)NC(=O)NC(=O)CI)C(=O)OC (stereo not given in full)                 -1
2  CCCCC1COc2cccc3c2N1C=C/C3=C\C(=O)n1ccc2ccccc21 (stereo not given)                 -1
3  O=C1CC(C(F)(F)F)Cc2nc3ccc(Br)cc3cc21 (stereo not given)                 -1
4  Fc1cc2[nH]ncc2c2c3c(c(-c4cn[nH]c4)nc12)CCCC3                  1
5  Cn1cc(-c2noc(-c3cn(C)c4ncc(F)cc34)n2)c2cc(Cl)ccc21                 -1

Data provenance is PubChem BioAssay (NCI).
